- System: human breast adenocarcinoma cells (ATCC HTB-26)
- PROTOCOL: cytotoxicity assay (Alamar blue), HTB-26
- Type: cell-based
- RECORDED CONDITIONS: HTB-26 breast cancer cells, 72 h
MEASURED PARAMETER: HTB-26 MIC (µg/mL)

[
  {
    "MOLECULE": "Cc1cc(CO)c2c(=O)c3c(O)cccc3oc2c1",
    "MEASURED TARGET": "human breast adenocarcinoma cells (ATCC HTB-26)",
    "MEASURED PARAMETER": "HTB-26 MIC",
    "RELATION": "=",
    "ENDPOINT RESULT": 32
  },
  {
    "MOLECULE": "CC(C)C12SSSSC3(C(=O)N1C)C1OC45C(=O)N(C)C(CO)C(=O)N4C4Nc6ccccc6C4(C5O)C14c1ccccc1NC4N3C2=O (stereo not drawn)",
    "MEASURED TARGET": "human breast adenocarcinoma cells (ATCC HTB-26)",
    "MEASURED PARAMETER": "HTB-26 MIC",
    "RELATION": "=",
    "ENDPOINT RESULT": 0.5
  },
  {
    "MOLECULE": "COc1cccc2c1C(=O)c1c(O)c3c(c(O)c1C2=O)C[C@@](O)(C(=O)CO)C[C@@H]3O[C@H]1C[C@H](N)[C@H](O)[C@H](C)O1 [Doxorubromycin, doxorubicin, reference compound]",
    "MEASURED TARGET": "human breast adenocarcinoma cells (ATCC HTB-26)",
    "MEASURED PARAMETER": "HTB-26 MIC",
    "RELATION": ">",
    "ENDPOINT RESULT": 16
  }
]

----------
- Tested on: S. warneri ATCC 17917
- PROTOCOL: microbroth antibiotic susceptibility testing, S. warneri
- Format: cell-based
- RECORDED CONDITIONS: Staphylococcus warneri, ATCC17917; triplicate, averaged; 22 h at 37°C; read-out: S. warneri IC50
Here the recorded IC50 is given for each entry.

[
  {
    "COMPOUND": "CC(C)C12SSSSC3(C(=O)N1C)C1OC45C(=O)N(C)C(CO)C(=O)N4C4Nc6ccccc6C4(C5O)C14c1ccccc1NC4N3C2=O (centres unmarked)",
    "MEASURED TARGET": "S. warneri ATCC 17917",
    "IC50": "9 mg/L"
  },
  {
    "COMPOUND": "Cc1cc(=O)c(O)cc2c1C[C@H]1CC(C)(C)/C=C/C[C@@]3(C)Oc4cc(O)c(=O)cc(C)c4C[C@@H]3C[C@H](O)[C@]1(C)O2",
    "MEASURED TARGET": "S. warneri ATCC 17917",
    "IC50": "12 mg/L"
  },
  {
    "COMPOUND": "Cc1cc(O)c2c(c1)C(=O)c1cccc(O)c1C2=O",
    "MEASURED TARGET": "S. warneri ATCC 17917",
    "IC50": "> 128 mg/L"
  },
  {
    "COMPOUND": "Cc1cc(O)c2c(c1)C(C1c3cccc(O)c3C(=O)c3c(O)cc(C)cc31)c1cccc(O)c1C2=O (centres unmarked)",
    "MEASURED TARGET": "S. warneri ATCC 17917",
    "IC50": "> 128 mg/L"
  },
  {
    "COMPOUND": "Cc1cc(=O)c(O)cc2c1C[C@H]1CC(C)(C)/C=C/C[C@@]3(C)Oc4cc(O)cc(C)c4C[C@@H]3C[C@H](O)[C@]1(C)O2",
    "MEASURED TARGET": "S. warneri ATCC 17917",
    "IC50": "33 mg/L"
  },
  {
    "COMPOUND": "Cc1cc(CO)c2c(=O)c3c(O)cccc3oc2c1",
    "MEASURED TARGET": "S. warneri ATCC 17917",
    "IC50": "> 128 mg/L"
  },
  {
    "COMPOUND": "COC1=C(Cl)C(C)(O)c2c(oc(=O)c3c(O)cc(OC)cc23)C1=O (centres unmarked)",
    "MEASURED TARGET": "S. warneri ATCC 17917",
    "IC50": "23 mg/L"
  },
  {
    "COMPOUND": "C[C@H]1CCC/C=C/[C@@H]2C[C@H](O)C[C@H]2[C@H](O)/C=C/C(=O)O1",
    "MEASURED TARGET": "S. warneri ATCC 17917",
    "IC50": "> 128 mg/L"
  }
]
